Please go through the items and note down their pIC50.
molecular target: E. coli DNA gyrase (Escherichia coli); construct: made in house; host or cells: E. coli BL21 (DE3); experiment: Test for evaluating the activity of inhibiting E. coli DNA gyrase enzyme (Method 1, supercoiling, Inspiralis enzyme); format: biochemical; conditions: Method 1; read-out: E. Coli Gyrase supercoiling IC50
Numbers only, as −log10 of the molar value.

Consider the worked cases shown below.
>  <MOLECULE>
CNc1cc(F)cc2cc(C(=O)Nc3cnc(NCCN4CCOCC4)nc3)c(=O)[nH]c12

>  <pIC50>
8.15

$$$$
>  <MOLECULE>
CNc1cccc2cc(C(=O)NC3CCN(c4ncc(C(=O)O)s4)C3)c(=O)[nH]c12 (stereo not shown)

>  <pIC50>
7.29

$$$$
>  <MOLECULE>
CNc1cccc2cc(C(=O)NCc3noc(=O)[nH]3)c(=O)[nH]c12

>  <pIC50>
4.45

$$$$

Checklist item: pIC50 tested on E. coli DNA gyrase (Escherichia coli), entry CNc1cccc2cc(C(=O)Nc3ccc(C(=O)N4CCOCC4)cc3)c(=O)[nH]c12 , value? 6.76
